- Tested on: MOLT-4
- Method Description: Growth inhibition of human MOLT4 cells at 10 uM incubated for 48 hrs by sulforhodamine B assay relative to control
- Type: functional
- Assay Setup: MOLT-4, 48 h, read-out: GI
I'd appreciate it if you could supply inhibition of growth at 10 µM values for the items below.
Be sure to follow the number with its unit.

# inhibition of growth at 10 µM lookup, item "CCOC(=O)c1ccc(Nc2ccnc(SCC(=O)c3ccc([N+](=O)[O-])cc3)n2)cc1"
58%

# inhibition of growth at 10 µM lookup, item "CC(=O)c1ccc(Nc2ccnc(SCC(=O)c3ccc(Cl)cc3)n2)cc1"
33%

# inhibition of growth at 10 µM lookup, item "O=C(CSc1nccc(Nc2ccc(N3CCOCC3)cc2)n1)c1ccc(F)cc1"
25%

# inhibition of growth at 10 µM lookup, item "COc1ccc(C(=O)CSc2nccc(Nc3ccc(N4CCOCC4)cc3)n2)cc1"
34%

# inhibition of growth at 10 µM lookup, item "CC(=O)c1ccc(Nc2ccnc(SCC(=O)c3ccc(Br)cc3)n2)cc1"
39%

# inhibition of growth at 10 µM lookup, item "COc1ccc(C(=O)CSc2nccc(Nc3cccc(C(C)=O)c3)n2)cc1"
53%

# inhibition of growth at 10 µM lookup, item "CC(=O)c1cccc(Nc2ccnc(SCC(=O)c3ccc(-c4ccccc4)cc3)n2)c1"
29%

# inhibition of growth at 10 µM lookup, item "CC(=O)c1cccc(Nc2ccnc(SCC(=O)c3ccc(C(F)(F)F)cc3)n2)c1"
24%

# inhibition of growth at 10 µM lookup, item "CCOC(=O)c1ccc(Nc2ccnc(SCC(=O)c3ccc(C#N)cc3)n2)cc1"
84%

###

I'd appreciate it if you could supply inhibition of growth at 10 µM values for the items below.
- Test system: A549
- Method Description: Growth inhibition of human A549/ATCC cells at 10 uM incubated for 48 hrs by sulforhodamine B assay relative to control
- Format: functional
- Assay Setup: A549, 48 h, read-out: GI
Please respond with the number in % and leave the unit unwritten.

# inhibition of growth at 10 µM lookup, item "CC(=O)c1ccc(Nc2ccnc(SCC(=O)c3ccc(Br)cc3)n2)cc1"
10

# inhibition of growth at 10 µM lookup, item "CC(=O)c1cccc(Nc2ccnc(SCC(=O)c3ccc(C(F)(F)F)cc3)n2)c1"
12

# inhibition of growth at 10 µM lookup, item "CCOC(=O)c1ccc(Nc2ccnc(SCC(=O)c3ccc([N+](=O)[O-])cc3)n2)cc1"
21

###

- System: RPMI-8226
- Method Description: Growth inhibition of human RPMI8226 cells at 10 uM incubated for 48 hrs by sulforhodamine B assay relative to control
- Format: functional
- Assay Setup: RPMI-8226, 48 h, read-out: GI
So basically: inhibition of growth at 10 µM at 40% or higher? That is label 1. Lower than 40%? That is label 0.

Could you verify whether the entry "CC(=O)c1ccc(Nc2ccnc(SCC(=O)c3ccc(Br)cc3)n2)cc1" shows inhibition of growth at 10 µM of no less than 40%?
label 0

Could you verify whether the entry "CC(=O)c1ccc(Nc2ccnc(SCC(=O)c3ccc(-c4ccccc4)cc3)n2)cc1" shows inhibition of growth at 10 µM of no less than 40%?
label 0

Could you verify whether the entry "COc1ccc(C(=O)CSc2nccc(Nc3ccc(N4CCOCC4)cc3)n2)cc1" shows inhibition of growth at 10 µM of no less than 40%?
label 1

Could you verify whether the entry "CCOC(=O)c1ccc(Nc2ccnc(SCC(=O)c3ccc(C#N)cc3)n2)cc1" shows inhibition of growth at 10 µM of no less than 40%?
label 1

Could you verify whether the entry "CC(=O)c1cccc(Nc2ccnc(SCC(=O)c3ccc(-c4ccccc4)cc3)n2)c1" shows inhibition of growth at 10 µM of no less than 40%?
label 0

Hello, the source for this data is ChEMBL document CHEMBL4396916, in case you need it.
